PROTOCOL_SUMMARY: Plasma pharmacokinetics of ESK-440 and metabolite CEP-38901
Type: in vivo, human
CONDITION_CONTEXT: human, plasma, oral, 350 mg/day
REPORTED_PROPERTY: AUC
Field: value (include unit after the number)

Value of measured AUC for the entry CNC(=O)c1ccccc1Nc1nc(Nc2ccc3c(c2OC)CCC[C@H](N2CCN(CCO)CC2)C3)ncc1Cl : 16800 ng·h/mL

###

PROTOCOL_SUMMARY: Plasma pharmacokinetics of ESK-440 and metabolite CEP-38901
Assay type: in vivo, human
CONDITION_CONTEXT: human, plasma, oral, median tmax, range across dose levels, day 15
REPORTED_PROPERTY: Tmax

Recorded Tmax (molecule CNC(=O)c1ccccc1Nc1nc(Nc2ccc3c(c2OC)CCC[C@H](N2CCN(CCO)CC2)C3)ncc1Cl ): 2.1 to 6.8 h
